# experimental-system: GST-tagged KRAS G12D (2-169) (Homo sapiens, UniProt P01116, G12D)
# Construct: GST-tagged KRAS^G12D (2-169, Reaction Biology, MSC-11-539); purchased Reaction Biology MSC-11-539 (KRAS G12D); MSC-11-502 (SOS1cat)
# Sequence (P01116 2-169 isoform P01116-2 G12D): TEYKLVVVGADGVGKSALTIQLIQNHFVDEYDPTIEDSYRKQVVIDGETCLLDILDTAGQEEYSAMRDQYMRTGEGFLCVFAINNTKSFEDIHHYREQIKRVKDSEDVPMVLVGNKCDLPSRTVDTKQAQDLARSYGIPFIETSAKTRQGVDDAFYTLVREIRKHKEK
# protocol: Nucleotide exchange assay (NEA), HTRF of SOS-mediated GTP-DY-647P1 binding
# Format: biochemical
# condition-context: 5 nM GST-KRAS G12D, 20 nM SOScat, 150 nM GTP; compound 1 h at RT
pIC50: −log10 of the molar value.
What pIC50 was measured for each of the following?

Recorded pIC50, per entry:
molecule | observed-value
CN(C)C(=O)c1cc2n(n1)CCCN(c1nc(OC[C@@]34CCCN3C[C@H](F)C4)nc3c1COC1(CCCc4ccc(O)c(Cl)c41)C3)C2 (stereo partly drawn) | 7.00 to 8.00
O=C(c1cc2n(n1)CCCN(c1nc(OC[C@@]34CCCN3C[C@H](F)C4)nc3c1CO[C@@]1(CCc4c(Cl)cccc41)C3)C2)N1CCOCC1 | > 8.00
F[C@H]1CN2CCC[C@@]2(COc2nc3c(c(N4C[C@H]5CC[C@@H](C4)N5)n2)COC2(CCc4c(Cl)cccc42)C3)C1 (stereo partly drawn) | 7.00 to 8.00
O=C1NC(=O)[C@]2(CCCN(c3nc(OC[C@@]45CCCN4C[C@H](F)C5)nc4c3COC3(CCCc5c(Cl)cc(O)cc53)C4)C2)N1 (single isomer, unassigned) [Compound 51A] | 4.70 to 6.00
O=C(c1nn2c(c1Cl)CN(c1nc(OC[C@@]34CCCN3C[C@H](F)C4)nc3c1CO[C@@]1(CCc4c(Cl)cccc41)C3)CCC2)N1CCNCC1 | > 8.00
Cc1nc(-c2nn3c(c2Cl)CN(c2nc(OC[C@@]45CCCN4C[C@H](F)C5)nc4c2CN(C)[C@@]2(CCCc5ccccc52)C4)CCC3)no1 | > 8.00
CN(O)C(=O)c1cc2n(n1)CCCN(c1nc(OC[C@@]34CCCN3C[C@H](F)C4)nc3c1CO[C@@]1(CCc4c(Cl)cccc41)C3)C2 | > 8.00
O=C1NC(=O)[C@]2(CCCN(c3nc(OC[C@@]45CCCN4C[C@H](F)C5)nc4c3COC3(CCCc5c(Cl)cc(O)cc53)C4)C2)N1 (single isomer, unassigned) [Compound 51B] | 7.00 to 8.00

Dear reader, for each entry below, please note its pIC50.
1. C[C@@H]1Cn2cncc2CN1c1nc(OC[C@@]23CCCN2C[C@H](F)C3)nc2c1CN(C)[C@@]1(CCCc3ccccc31)C2
2. CN(C)C(=O)c1cc2n(n1)CCCN(c1nc(OC[C@@]34CCCN3C[C@H](F)C4)nc3c1COC1(CCc4ccc(OC(F)F)cc41)C3)C2 (mixture of isomers)
3. C[C@@]1(O)CCCN(c2nc(OC[C@@]34CCCN3C[C@H](F)C4)nc3c2COC2(CCc4c(Cl)cccc42)C3)C1 (stereo partly drawn) [Compound 23]
4. CN(C)C(=O)c1nn2c(c1Cl)CN(c1nc(OC[C@@]34CCCN3C[C@H](F)C4)nc3c1CN(CC#N)[C@@]1(CCc4cccc(F)c41)C3)CCC2

1: 4.70 to 6.00; 2: 4.70 to 6.00; 3: 4.70 to 6.00; 4: 6.00 to 7.00

Measured values drawn from patent US11912723B2 for this set.
